System: PC3 (prostate)
assay protocol: In vitro cytotoxic activity (MTT) assay, PC3
Format: cell-based
assay setup: Homo sapiens, PC-3; PC3 cells, exposed for 96 hours; read-out: IC50, 50% inhibition of cell proliferation, PC3 (prostate)
measured parameter: IC50 (nM)
The answer is to be given in nM; state only the numeric part.

Exercise: So what does the record say about IC50 for "Clc1cccc(Nc2nc3c(nc4cnccn43)c3ccncc23)c1" ?
Solution: 1800

* * *

Tested on: H1299 (lung)
assay protocol: In vitro cytotoxic activity (MTT) assay, H1299
Format: cell-based
assay setup: Homo sapiens, NCI-H1299; H1299 cells, exposed for 96 hours; read-out: IC50, 50% inhibition of cell proliferation, H1299 (lung)
measured parameter: pIC50
pIC50 is a log-scale quantity: -log10 of the concentration expressed in molar.

Exercise: So what does the record say about pIC50 for Clc1cccc(Nc2nc3c(nc4cnccn43)c3ccncc23)c1 [Example 1] ?
Solution: 5.72
